Recorded values, source patent US4898858A.

MIC by entry:
- Test system: Salmonella enteritidis No.11
- procedure summary: minimum growth-inhibitory concentration (MIC) in vitro
- Type: cell-based
- reported conditions: Salmonella enterica
quantity kind: MIC

>  <compound>
Nc1nc(/C(=N/OC(CF)C(=O)O)C(=O)N[C@@H]2C(=O)N3C(C(=O)[O-])=C(CSc4cc[n+](CCF)cc4)CS[C@H]23)cs1 (stereo partly drawn)

>  <quantity kind>
MIC

>  <measured value>
0.05 µg/mL

$$$$
>  <compound>
C[C@H](O/N=C(\C(=O)N[C@@H]1C(=O)N2C(C(=O)[O-])=C(CSc3cc[n+](CCF)cc3)CS[C@H]12)c1csc(N)n1)C(=O)O

>  <quantity kind>
MIC

>  <measured value>
< 0.025 µg/mL

$$$$
>  <compound>
CC[n+]1ccc(SCC2=C(C(=O)[O-])N3C(=O)[C@@H](NC(=O)/C(=N\O[C@H](C)C(=O)O)c4csc(N)n4)[C@H]3SC2)cc1

>  <quantity kind>
MIC

>  <measured value>
< 0.025 µg/mL

$$$$

* * *

- Test system: Salmonella enteritidis No.11
- procedure summary: minimum growth-inhibitory concentration (MIC) in vitro
- Type: cell-based
- reported conditions: Salmonella enterica
MIC by entry:

>  <compound>
C[C@@H](O/N=C(\C(=O)N[C@@H]1C(=O)N2C(C(=O)[O-])=C(CSc3cc[n+](CCF)cc3)CS[C@H]12)c1csc(N)n1)C(=O)O [Example 2]

>  <target under test>
Salmonella enteritidis No.11

>  <MIC>
< 0.025 mg/L

$$$$
>  <compound>
CCC(O/N=C(\C(=O)N[C@@H]1C(=O)N2C(C(=O)[O-])=C(CSc3cc[n+](CCF)cc3)CS[C@H]12)c1csc(N)n1)C(=O)O (stereo partly drawn) [Example 4]

>  <target under test>
Salmonella enteritidis No.11

>  <MIC>
< 0.025 mg/L

$$$$
>  <compound>
Nc1nc(/C(=N/OC(C(=O)O)C2CCCCC2)C(=O)N[C@@H]2C(=O)N3C(C(=O)[O-])=C(CSc4cc[n+](CCF)cc4)CS[C@H]23)cs1 (stereo partly drawn) [Example 5]

>  <target under test>
Salmonella enteritidis No.11

>  <MIC>
0.2 mg/L

$$$$
>  <compound>
CC[n+]1ccc(SCC2=C(C(=O)[O-])N3C(=O)[C@@H](NC(=O)/C(=N\O[C@@H](C)C(=O)O)c4csc(N)n4)[C@H]3SC2)cc1 [Example 8]

>  <target under test>
Salmonella enteritidis No.11

>  <MIC>
< 0.025 mg/L

$$$$
>  <compound>
C[C@H](O/N=C(\C(=O)N[C@@H]1C(=O)N2C(C(=O)[O-])=C(CSc3cc[n+](C)cc3)CS[C@H]12)c1csc(N)n1)C(=O)O [Example 7]

>  <target under test>
Salmonella enteritidis No.11

>  <MIC>
< 0.025 mg/L

$$$$
>  <compound>
CC(O/N=C(\C(=O)N[C@@H]1C(=O)N2C(C(=O)[O-])=C(CSc3cc[n+](CCF)cc3)CS[C@H]12)c1csc(N)n1)C(=O)O (stereo partly drawn) [Example 1]

>  <target under test>
Salmonella enteritidis No.11

>  <MIC>
< 0.025 mg/L

$$$$

* * *

MIC by entry:
- Tested on: Proteus rettgeri GN-624
quantity kind: MIC (µg/mL)

>  <smiles input>
C[C@H](O/N=C(\C(=O)N[C@@H]1C(=O)N2C(C(=O)[O-])=C(CSc3cc[n+](CCF)cc3)CS[C@H]12)c1csc(N)n1)C(=O)O

>  <target under test>
Proteus rettgeri GN-624

>  <measured value>
0.05

$$$$
>  <smiles input>
CC[n+]1ccc(SCC2=C(C(=O)[O-])N3C(=O)[C@@H](NC(=O)/C(=N\O[C@@H](C)C(=O)O)c4csc(N)n4)[C@H]3SC2)cc1

>  <target under test>
Proteus rettgeri GN-624

>  <measured value>
0.05

$$$$
>  <smiles input>
C[C@@H](O/N=C(\C(=O)N[C@@H]1C(=O)N2C(C(=O)[O-])=C(CSc3cc[n+](CCF)cc3)CS[C@H]12)c1csc(N)n1)C(=O)O

>  <target under test>
Proteus rettgeri GN-624

>  <measured value>
0.1

$$$$

* * *

MIC by entry:
- Test system: Pseudomonas aeruginosa E-2
- procedure summary: minimum growth-inhibitory concentration (MIC) in vitro
- Format: cell-based
- reported conditions: E2
quantity kind: MIC

>  <molecule>
CC(O/N=C(\C(=O)N[C@@H]1C(=O)N2C(C(=O)[O-])=C(CSc3cc[n+](CCF)cc3)CS[C@H]12)c1csc(N)n1)C(=O)O (stereo partly drawn)

>  <measured value>
1.56 µg/mL

$$$$
>  <molecule>
C[C@H](O/N=C(\C(=O)N[C@@H]1C(=O)N2C(C(=O)[O-])=C(CSc3cc[n+](CCF)cc3)CS[C@H]12)c1csc(N)n1)C(=O)O

>  <measured value>
1.56 µg/mL

$$$$
>  <molecule>
C[C@@H](O/N=C(\C(=O)N[C@@H]1C(=O)N2C(C(=O)[O-])=C(CSc3cc[n+](CCF)cc3)CS[C@H]12)c1csc(N)n1)C(=O)O

>  <measured value>
3.13 µg/mL

$$$$
>  <molecule>
CC[n+]1ccc(SCC2=C(C(=O)[O-])N3C(=O)[C@@H](NC(=O)/C(=N\O[C@H](C)C(=O)O)c4csc(N)n4)[C@H]3SC2)cc1

>  <measured value>
1.56 µg/mL

$$$$
>  <molecule>
Nc1nc(/C(=N/OC(CF)C(=O)O)C(=O)N[C@@H]2C(=O)N3C(C(=O)[O-])=C(CSc4cc[n+](CCF)cc4)CS[C@H]23)cs1 (stereo partly drawn)

>  <measured value>
1.56 µg/mL

$$$$
>  <molecule>
CC[n+]1ccc(SCC2=C(C(=O)[O-])N3C(=O)[C@@H](NC(=O)/C(=N\O[C@@H](C)C(=O)O)c4csc(N)n4)[C@H]3SC2)cc1

>  <measured value>
0.78 µg/mL

$$$$
>  <molecule>
Nc1nc(/C(=N/OC(C(=O)O)C2CCCCC2)C(=O)N[C@@H]2C(=O)N3C(C(=O)[O-])=C(CSc4cc[n+](CCF)cc4)CS[C@H]23)cs1 (stereo partly drawn)

>  <measured value>
12.5 µg/mL

$$$$
>  <molecule>
CCC(O/N=C(\C(=O)N[C@@H]1C(=O)N2C(C(=O)[O-])=C(CSc3cc[n+](CCF)cc3)CS[C@H]12)c1csc(N)n1)C(=O)O (stereo partly drawn)

>  <measured value>
3.13 µg/mL

$$$$
>  <molecule>
C[C@H](O/N=C(\C(=O)N[C@@H]1C(=O)N2C(C(=O)[O-])=C(CSc3cc[n+](C)cc3)CS[C@H]12)c1csc(N)n1)C(=O)O

>  <measured value>
0.78 µg/mL

$$$$

* * *

MIC by entry:
- Test system: Enterobacter Cloacae G-0005
- procedure summary: minimum growth-inhibitory concentration (MIC) in vitro
- Format: cell-based
quantity kind: MIC (µg/mL)

>  <compound>
CCC(O/N=C(\C(=O)N[C@@H]1C(=O)N2C(C(=O)[O-])=C(CSc3cc[n+](CCF)cc3)CS[C@H]12)c1csc(N)n1)C(=O)O (stereo partly drawn)

>  <quantity kind>
MIC

>  <measured value>
0.39

$$$$
>  <compound>
CC[n+]1ccc(SCC2=C(C(=O)[O-])N3C(=O)[C@@H](NC(=O)/C(=N\O[C@@H](C)C(=O)O)c4csc(N)n4)[C@H]3SC2)cc1

>  <quantity kind>
MIC

>  <measured value>
0.05

$$$$
>  <compound>
C[C@H](O/N=C(\C(=O)N[C@@H]1C(=O)N2C(C(=O)[O-])=C(CSc3cc[n+](C)cc3)CS[C@H]12)c1csc(N)n1)C(=O)O

>  <quantity kind>
MIC

>  <measured value>
0.05

$$$$

* * *

- System: Escherichia coli ML1410
- procedure summary: minimum growth-inhibitory concentration (MIC) in vitro
- Format: cell-based
MIC by entry:

>  <compound>
Nc1nc(/C(=N/OC(CF)C(=O)O)C(=O)N[C@@H]2C(=O)N3C(C(=O)[O-])=C(CSc4cc[n+](CCF)cc4)CS[C@H]23)cs1 (stereo partly drawn) [Example 6]

>  <target under test>
Escherichia coli ML1410

>  <unit string>
µg/mL

>  <MIC>
0.1

$$$$
>  <compound>
CC(O/N=C(\C(=O)N[C@@H]1C(=O)N2C(C(=O)[O-])=C(CSc3cc[n+](CCF)cc3)CS[C@H]12)c1csc(N)n1)C(=O)O (stereo partly drawn) [Example 1]

>  <target under test>
Escherichia coli ML1410

>  <unit string>
µg/mL

>  <MIC>
0.1

$$$$
>  <compound>
CC[n+]1ccc(SCC2=C(C(=O)[O-])N3C(=O)[C@@H](NC(=O)/C(=N\O[C@H](C)C(=O)O)c4csc(N)n4)[C@H]3SC2)cc1 [Example 9]

>  <target under test>
Escherichia coli ML1410

>  <unit string>
µg/mL

>  <MIC>
0.1

$$$$
>  <compound>
C[C@H](O/N=C(\C(=O)N[C@@H]1C(=O)N2C(C(=O)[O-])=C(CSc3cc[n+](C)cc3)CS[C@H]12)c1csc(N)n1)C(=O)O [Example 7]

>  <target under test>
Escherichia coli ML1410

>  <unit string>
µg/mL

>  <MIC>
0.1

$$$$
>  <compound>
CC[n+]1ccc(SCC2=C(C(=O)[O-])N3C(=O)[C@@H](NC(=O)/C(=N\O[C@@H](C)C(=O)O)c4csc(N)n4)[C@H]3SC2)cc1 [Example 8]

>  <target under test>
Escherichia coli ML1410

>  <unit string>
µg/mL

>  <MIC>
0.1

$$$$
>  <compound>
CCC(O/N=C(\C(=O)N[C@@H]1C(=O)N2C(C(=O)[O-])=C(CSc3cc[n+](CCF)cc3)CS[C@H]12)c1csc(N)n1)C(=O)O (stereo partly drawn) [Example 4]

>  <target under test>
Escherichia coli ML1410

>  <unit string>
µg/mL

>  <MIC>
0.39

$$$$
>  <compound>
Nc1nc(/C(=N/OC(C(=O)O)C2CCCCC2)C(=O)N[C@@H]2C(=O)N3C(C(=O)[O-])=C(CSc4cc[n+](CCF)cc4)CS[C@H]23)cs1 (stereo partly drawn) [Example 5]

>  <target under test>
Escherichia coli ML1410

>  <unit string>
µg/mL

>  <MIC>
3.13

$$$$
>  <compound>
C[C@@H](O/N=C(\C(=O)N[C@@H]1C(=O)N2C(C(=O)[O-])=C(CSc3cc[n+](CCF)cc3)CS[C@H]12)c1csc(N)n1)C(=O)O [Example 2]

>  <target under test>
Escherichia coli ML1410

>  <unit string>
µg/mL

>  <MIC>
0.2

$$$$
>  <compound>
C[C@H](O/N=C(\C(=O)N[C@@H]1C(=O)N2C(C(=O)[O-])=C(CSc3cc[n+](CCF)cc3)CS[C@H]12)c1csc(N)n1)C(=O)O [Example 3]

>  <target under test>
Escherichia coli ML1410

>  <unit string>
µg/mL

>  <MIC>
0.1

$$$$
